- assay-info: chemical genetic growth profiling, strain panel (AID 1159580);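 further: tested at 20 µM; growth read once vehicle control cultures reached saturation at 30 °C; 1 = growth at the plate median or of vehicle wells; lower values mean less growth of the strain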
- condition-label: S. cerevisiae deletion strains, growth OD, locus YJL128C, strain PBS2, hits give low values
Hit rate of the full screen: of about 5,500 compounds, about 2,000 (36%) were called active. About 18% were inconclusive and are not listed. Some of the results follow.
Entries and their measured normalized growth follow.
observable: normalized growth

INSERT INTO assay_data (molecule_smiles, observable, test_value) VALUES
  ('O=C(Nc1ccc(Cl)cc1)OCCSc1nc2ccccc2s1', 'normalized growth', 0.944),
  ('CC(C)(CCC(C)(C)N1C(=O)c2cccc3cccc(c23)C1=O)N1C(=O)c2cccc3cccc(c23)C1=O', 'normalized growth', 0.472),
  ('Cc1ccc(NS(=O)(=O)c2ccc(-c3csc(C)n3)s2)c(C)c1', 'normalized growth', 0.943),
  ('CC1(C)OC(=O)C(=Cc2cccn2-c2ccc(OC(F)(F)F)cc2)C(=O)O1', 'normalized growth', 0.918),
  ('CC1(C)OC(=O)C(=Cc2cccn2-c2ccc(C(F)(F)F)cc2)C(=O)O1', 'normalized growth', 0.931);
